System: Sis7dWT (native, methylated) (Sulfolobus islandicus E234)
assay_notes: BLI
experimental_conditions: BLI: 20 mM Tris-HCl pH 6.8, 100 mM KCl, 1 mM EDTA, 0.05% Tween-20, 30°C; pull-down: 10 mM HEPES pH 7.6, 100 mM KCl, 2.5 mM MgCl2, 0.1 mg/mL BSA, room …
observed_property: Kd (nM)
# output: bare number, implied unit nM

Give the measured Kd of TAGAGCCCTAGTCTTCCAAACTAGCTACGC (double strand) [D30] .
1640
